test system: 786-O; assay: Euclidean distance of Cell Painting phenotypic profile (signed KS, 77 features) to DMSO centroid (dimensionless distance); 5 or 10 uM (library dependent); higher = stronger phenotypic change vs DMSO (phenoactivity); settings: 48 h
Counter-ions that a name gives are not always drawn.
Please provide measured Euclidean distance for the entries that follow.
One number for each entry.

>>> numeric_readout("CS(=O)(=O)c1cccc(CNc2nc(Nc3ccc4c(c3)CCC(=O)N4)ncc2C(F)(F)F)c1")
3.16
>>> numeric_readout("CC(O)(P(=O)(O)O)P(=O)(O)O [Etidronate]")
1.27
>>> numeric_readout("Nc1ccn([C@@H]2O[C@H](CO)[C@@H](O)[C@H]2O)c(=O)n1 [Cytidine]")
1.92

Each of the following entries comes with a recorded value; kindly state Euclidean distance for each.
1. N.N.O=C([O-])C[O-].[Pt+2] [Nedaplatin]
2. CCCNCC(O)COc1ccccc1C(=O)CCc1ccccc1 (stereo not given) [Propafenone HCl]

Solution:
[3.19, 1.59]
